experiment: Partition coefficient estimated by HPLC method; format: physicochemical; conditions: estimated using an HPLC method; read-out: HPLC Log P
readout_kind: chromatographic logP

[[record]]
molecule = "Cc1cc(C)c(S(=O)(=O)NC(CNC(=O)c2ccc3c(cnn3CCCNc3ncc[nH]3)c2)C(=O)OCC[N+](C)(C)C)c(C)c1 (centres unmarked)"
result_value = 0.95

[[record]]
molecule = "COC(=O)C(CNC(=O)c1ccc2c(cnn2CCCNc2ncc[nH]2)c1)NS(=O)(=O)c1c(C)cc(C)cc1C (centres unmarked)"
result_value = 3.73


---

Test: Plasma concentrations after i.v. bolus of SD209 in pigs (in vivo conversion of prodrug)
Set-up: species or system Yorkshire domestic swine
Details: pig, plasma, iv, 0.5 mg/kg, pig 2, Time 0.00 hr, i.v. bolus 0.5 mg/kg of SD209; read-out: plasma conc.
Method: Data indicating conversion of the prodrug SD209 to the drug, SM256 once administered into circulation in vivo is represented in Table 5. The data in Table 5 id generated from intravenous administration of the prodrug, SD209, in pigs. SD209 was injected intravenously at a dose of 0.5 mg/kg and plasma was seperated after blood sampling at different intervals. […]
readout_kind: concentration at 0 h

[[record]]
molecule = "Cc1cc(C)c(S(=O)(=O)NC(CNC(=O)c2ccc3c(cnn3CCCNc3ncc[nH]3)c2)C(=O)OCC[N+](C)(C)C)c(C)c1 (stereo not shown) [SD209]"
readout_kind = "concentration at 0 h"
result_value = "< 2 ng/mL"


Where do these numbers come from? They come from patent US6214834A.
